# system tested: Vascular endothelial growth factor receptor 2 (Homo sapiens)
# experiment notes: Inhibition of VEGFR2 (unknown origin) phosphorylation at 5 ug/mL by cell-based Western blotting analysis
Active and inactive are the calls of the source. The rule behind the calls is not given here.
Would you mind answering with one of these outcomes? true (1) for active, false (0) for inactive

Worked examples follow.
O=[N+]([O-])c1ccc(S(=O)(=O)Nc2ccc(O)c(Sc3ncn[nH]3)c2)cc1	true (1)
Cc1ccc(Nc2nccc(N(C)c3ccc4c(C)n(C)nc4c3)n2)cc1S(N)(=O)=O	true (1)
O=C(Nc1ccc(O)c(Sc2ncnc3nc[nH]c23)c1)c1ccc([N+](=O)[O-])cc1	true (1)

Problem: How did this test come out for O=S(=O)(Nc1ccc(O)c(Sc2ncn[nH]2)c1)c1ccc(Cl)cc1 ?
Result: false (0)

* * *

# system tested: UniProt:Q9UM73
# Sequence (Q9UM73 19-1620 limits assumed): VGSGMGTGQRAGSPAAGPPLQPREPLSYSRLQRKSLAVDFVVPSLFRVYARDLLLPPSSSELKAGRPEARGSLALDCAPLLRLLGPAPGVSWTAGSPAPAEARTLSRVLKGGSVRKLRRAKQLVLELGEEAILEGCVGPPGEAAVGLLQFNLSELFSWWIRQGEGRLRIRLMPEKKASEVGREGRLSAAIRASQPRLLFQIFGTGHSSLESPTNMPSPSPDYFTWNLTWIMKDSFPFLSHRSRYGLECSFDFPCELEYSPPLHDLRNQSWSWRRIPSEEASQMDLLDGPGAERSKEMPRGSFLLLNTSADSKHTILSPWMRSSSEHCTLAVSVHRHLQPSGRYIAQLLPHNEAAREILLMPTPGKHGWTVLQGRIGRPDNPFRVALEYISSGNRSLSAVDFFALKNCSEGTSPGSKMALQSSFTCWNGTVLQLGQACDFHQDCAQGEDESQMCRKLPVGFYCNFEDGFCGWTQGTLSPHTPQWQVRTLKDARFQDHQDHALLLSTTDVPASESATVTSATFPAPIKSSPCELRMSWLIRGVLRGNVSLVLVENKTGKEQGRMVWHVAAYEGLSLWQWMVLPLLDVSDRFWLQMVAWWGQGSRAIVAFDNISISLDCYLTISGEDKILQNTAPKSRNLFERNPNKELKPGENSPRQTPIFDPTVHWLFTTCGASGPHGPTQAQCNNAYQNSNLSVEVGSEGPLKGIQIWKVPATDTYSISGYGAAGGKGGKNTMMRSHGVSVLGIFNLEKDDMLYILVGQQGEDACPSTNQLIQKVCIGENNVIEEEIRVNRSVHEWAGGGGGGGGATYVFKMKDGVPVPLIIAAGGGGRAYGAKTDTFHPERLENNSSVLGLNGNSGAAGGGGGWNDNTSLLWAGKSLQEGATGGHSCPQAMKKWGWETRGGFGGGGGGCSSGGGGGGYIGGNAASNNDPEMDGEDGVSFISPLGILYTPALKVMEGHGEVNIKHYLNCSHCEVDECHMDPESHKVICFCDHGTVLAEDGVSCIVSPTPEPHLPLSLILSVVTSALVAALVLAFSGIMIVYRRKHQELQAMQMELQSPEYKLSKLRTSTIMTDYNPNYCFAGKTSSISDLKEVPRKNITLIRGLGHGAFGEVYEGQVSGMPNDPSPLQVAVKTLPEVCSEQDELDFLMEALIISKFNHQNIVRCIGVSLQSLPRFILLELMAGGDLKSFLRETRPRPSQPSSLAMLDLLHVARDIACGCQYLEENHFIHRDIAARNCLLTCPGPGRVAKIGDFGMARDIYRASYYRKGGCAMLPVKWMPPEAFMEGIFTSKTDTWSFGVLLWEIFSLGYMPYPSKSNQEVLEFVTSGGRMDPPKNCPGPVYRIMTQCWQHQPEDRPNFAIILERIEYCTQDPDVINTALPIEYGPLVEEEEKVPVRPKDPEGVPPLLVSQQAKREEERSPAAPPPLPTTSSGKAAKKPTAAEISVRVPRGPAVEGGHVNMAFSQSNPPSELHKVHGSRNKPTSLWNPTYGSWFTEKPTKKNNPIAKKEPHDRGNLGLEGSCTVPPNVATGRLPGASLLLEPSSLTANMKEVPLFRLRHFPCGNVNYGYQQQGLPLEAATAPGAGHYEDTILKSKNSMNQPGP
# experiment notes: Inhibition of ALK (unknown origin) at 10 uM after 30 mins by fluorescence assay relative to control
The source made the active and inactive calls. No cut-off for these calls is given here.
property name: inhibition

Solved entries (count: 10):
CS(=O)(=O)Nc1ccc(O)c(Sc2ncn[nH]2)c1	15.9%
CC(C)c1cc(C(C)C)c(S(=O)(=O)Nc2ccc(O)c(Sc3ncn[nH]3)c2)c(C(C)C)c1	17.1%
Cc1cc(C)c(S(=O)(=O)Nc2ccc(O)c(Sc3nc[nH]n3)c2)c(C)c1	18%
O=C(Nc1ccc(O)c(Sc2nncs2)c1)c1ccc([N+](=O)[O-])cc1	inactive
O=[N+]([O-])c1ccc(S(=O)(=O)Nc2ccc(O)c(Sc3ncnc4nc[nH]c34)c2)cc1	inactive
O=C(Nc1ccc(O)c(Sc2ncn[nH]2)c1)c1ccc([N+](=O)[O-])cc1	inactive
Cc1nnc(Sc2cc(NS(=O)(=O)c3ccc([N+](=O)[O-])cc3)ccc2O)s1	21.8%
Cn1nnnc1Sc1cc(NS(=O)(=O)c2ccc([N+](=O)[O-])cc2)ccc1O	inactive
O=[N+]([O-])c1ccc(S(=O)(=O)Nc2ccc(O)c(Sc3nncs3)c2)cc1	11.4%
O=S(=O)(Nc1ccc(O)c(Sc2ncn[nH]2)c1)c1c(Cl)cccc1Cl	10.3%

# map each compound to its inhibition
1. Cc1nnc(Sc2cc(NC(=O)c3ccc([N+](=O)[O-])cc3)ccc2O)s1
2. O=C(Nc1ccc(O)c(Sc2ncnc3nc[nH]c23)c1)c1ccc([N+](=O)[O-])cc1
3. Cc1ccc(S(=O)(=O)Nc2ccc(O)c(Sc3nc[nH]n3)c2)cc1
4. Cn1nnnc1Sc1cc(NC(=O)c2ccc([N+](=O)[O-])cc2)ccc1O
5. O=[N+]([O-])c1ccc(S(=O)(=O)Nc2ccc(O)c(Sc3ncn[nH]3)c2)cc1
6. O=S(=O)(Nc1ccc(O)c(Sc2ncn[nH]2)c1)c1ccc2ccccc2c1
7. O=S(=O)(Nc1ccc(O)c(Sc2ncn[nH]2)c1)c1cccc2ccccc12

Result:
1: 14%; 2: 21.9%; 3: 15.3%; 4: inactive; 5: 49.4%; 6: inactive; 7: 10%

Parameter requested: inhibition. Apply to each item below.
1. O=S(=O)(Nc1ccc(O)c(Sc2ncn[nH]2)c1)c1ccc(Cl)cc1
2. COc1ccc(S(=O)(=O)Nc2ccc(O)c(Sc3nc[nH]n3)c2)cc1

Result:
1. inactive
2. 29.5%

* * *

Hi there, I'd appreciate the recorded inhibition for every entry that follows.
# system tested: RAC-alpha serine/threonine-protein kinase (Homo sapiens)
# Sequence (P31749 whole entry): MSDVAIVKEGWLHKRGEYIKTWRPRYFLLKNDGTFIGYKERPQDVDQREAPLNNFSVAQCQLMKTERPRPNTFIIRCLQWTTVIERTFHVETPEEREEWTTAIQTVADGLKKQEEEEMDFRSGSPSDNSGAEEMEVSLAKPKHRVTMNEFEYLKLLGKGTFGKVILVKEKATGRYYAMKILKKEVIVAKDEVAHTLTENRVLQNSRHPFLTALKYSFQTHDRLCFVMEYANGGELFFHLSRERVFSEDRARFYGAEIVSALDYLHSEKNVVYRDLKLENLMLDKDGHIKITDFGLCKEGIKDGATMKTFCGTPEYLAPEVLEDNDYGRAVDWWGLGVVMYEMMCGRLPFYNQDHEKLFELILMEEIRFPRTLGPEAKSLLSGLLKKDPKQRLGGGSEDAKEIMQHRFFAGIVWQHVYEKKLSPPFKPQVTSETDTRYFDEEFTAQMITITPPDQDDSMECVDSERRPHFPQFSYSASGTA
# experiment notes: Inhibition of AKT (unknown origin) at 10 uM after 30 mins by fluorescence assay relative to control

O=S(=O)(Nc1ccc(O)c(Sc2ncn[nH]2)c1)c1ccc(Cl)cc1	56.4%
Cc1cc(C)c(S(=O)(=O)Nc2ccc(O)c(Sc3nc[nH]n3)c2)c(C)c1	19.7%
O=[N+]([O-])c1ccc(S(=O)(=O)Nc2ccc(O)c(Sc3ncn[nH]3)c2)cc1	100%
O=S(=O)(Nc1ccc(O)c(Sc2ncn[nH]2)c1)c1cccc2ccccc12	20.4%

Give inhibition for each listed item.
1. O=[N+]([O-])c1ccc(S(=O)(=O)Nc2ccc(O)c(Sc3ncnc4nc[nH]c34)c2)cc1
2. CC(C)c1cc(C(C)C)c(S(=O)(=O)Nc2ccc(O)c(Sc3ncn[nH]3)c2)c(C(C)C)c1
3. O=C(Nc1ccc(O)c(Sc2ncn[nH]2)c1)c1ccc([N+](=O)[O-])cc1

Result:
["37.5%", "14.5%", "50.7%"]
